# z-score per record follows
EXPERIMENT_NOTES: S. cerevisiae growth modulation with rapamycin, primary screen, strain BY4716, OD600, 96 h (AID 1091); also: test concentration not given here
RUN_CONDITIONS: higher = more signal, called active from +8 up or from −8 down
No unit in the answer, only the number.

Solved cases below.
MOLECULE	z-score
COc1ccc([Si](C)(C)[C@H]2[C@H](CCn3cc(CCO)nn3)O[C@@]3(C(=O)N(Cc4ccc(N5CCOC5=O)cc4)c4ccccc43)[C@@H]2C)cc1	4.55
COC(=O)C(CC#Cc1ccc2c(c1)[C@]1(C(=O)N2)[C@H](c2ccc(OCCO)cc2)N2[C@H](c3ccccc3)[C@H](c3ccccc3)OC(=O)[C@H]2[C@@H]1C(=O)NC[C@H](O)c1ccccc1)C(=O)OC	7.43

Reported z-score, molecule "COc1ccc([Si](C)(C)[C@@H]2[C@@H](CC(=O)N3CCC[C@H]3CO)O[C@]3(C(=O)N(C)c4c(Br)cc(C)cc43)[C@H]2C)cc1" : ____
-0.827

Reported z-score, molecule O=C(OCCF)C1=CCC(c2cccc(Cl)c2)O1 (configuration not stated) : ____
2.82

Reported z-score, molecule "O=C(NCc1ccccc1)[C@]1(CCS(=O)(=O)c2ccccc2)N=C(c2ccc(OCCCO)cc2)O[C@@H]1c1ccccc1" : ____
36.9

Reported z-score, molecule "COCCCNC(=O)[C@@]1(c2ccc([N+](=O)[O-])cc2)CC(=O)N(CC23CC4CC(CC(C4)C2)C3)[C@@H]1c1ccc(CO)cc1" : ____
-0.101

Reported z-score, molecule "COCCOC(=O)N1C(=O)[C@@]2(c3cc(C#CCC(C(=O)OC)C(=O)OC)ccc31)[C@H](c1ccccc1OCCO)N1[C@H](c3ccccc3)[C@H](c3ccccc3)OC(=O)[C@H]1[C@@H]2C(N)=O" : ____
4.79

---

# composite z-score per record follows
Test system: wheat germ agglutinin (Triticum aestivum), Alexa647-labelled
EXPERIMENT_NOTES: wheat germ agglutinin binders on compound microarrays, profiling panel, artefact control for SMM control-protein annotation, biochemical, small-molecule microarray, 635/667 nm fluorescence (AID 1140);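 also: score merges 667 nm feature emission with signal to noise over triplicate slides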
RUN_CONDITIONS: WGA-A647 binding, 635 nm fluorescence, higher = more signal
No unit in the answer, only the number.

>>> df
                                   compound                                    target       readout_kind  observed_value
0  COC(=O)[C@@]1(Cc2ccc(OC)cc2)[C@H]2c3cc(C(=O)N(C)C)n(Cc4c(OC)[nH]cc(C)c4=O)c3C[C@H]2CN1C(=O)c1ccccc1  wheat germ agglutinin (Triticum aestivum), Alexa647-labelled  composite z-score            0.59
1  CCC(CC)C(O)C1C=CC2C(=O)N(c3ccccc3)C(=O)C2N1Nc1ccc(C#N)cc1 (stereo not drawn)  wheat germ agglutinin (Triticum aestivum), Alexa647-labelled  composite z-score            1.21
2  COc1ccccc1CN1C(=O)c2ccccc2[C@@H](C(=O)NCCN2CCOCC2)[C@@H]1c1ccc(CO)cc1  wheat germ agglutinin (Triticum aestivum), Alexa647-labelled  composite z-score           0.285
3  COC(=O)c1ccc(OC)c(/C=C\CC(OC(C)=O)c2ccccc2)c1 (stereo not drawn)  wheat germ agglutinin (Triticum aestivum), Alexa647-labelled  composite z-score            1.11
4  CCOC(=O)C1=CC[C@@H](c2ccccc2)N(S(=O)(=O)c2ccc(C)cc2)[C@H]1C(=O)OCC  wheat germ agglutinin (Triticum aestivum), Alexa647-labelled  composite z-score           0.951
5  Cc1cc(C)c(C(O)C2C=CC3C(=O)N(C)C(=O)C3N2Nc2ccccc2)c(C)c1 (stereo not drawn)  wheat germ agglutinin (Triticum aestivum), Alexa647-labelled  composite z-score           0.847

Checklist item: composite z-score tested on wheat germ agglutinin (Triticum aestivum), Alexa647-labelled, entry CS(=O)(=O)CCOC(=O)C1=CC(c2ccc(CO)cc2)=CC(C2CC2)N(Cc2cc3c(cc2Br)OCO3)C=C1C(=O)OCCS(C)(=O)=O (stereo not drawn) , value?
0.953

Checklist item: composite z-score tested on wheat germ agglutinin (Triticum aestivum), Alexa647-labelled, entry "COc1ccc(CCNC(=O)[C@@]2(c3ccc([N+](=O)[O-])cc3)CC(=O)N(CC34CC5CC(CC(C5)C3)C4)[C@@H]2c2ccc(CO)cc2)cc1" , value?
-0.037

---

# z-score per record follows
EXPERIMENT_NOTES: E. coli growth modulation, two-sided OD650, primary screen, E. coli filamentation project, strain DRC41, 24 h (AID 1093);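 also: MC1000 strain lacking acrAB efflux and sulA so SOS filamentation is blocked; test concentration not given here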
RUN_CONDITIONS: OD650, 24 h, higher = more signal, called active from +8 up or from −8 down
Activity calls are given as the source filed them.

Solved cases below.
MOLECULE	OBSERVED_VALUE
COCC(=C=CC[C@@H](O)c1ccc(CO)o1)CCO	1.6 (inactive)
C=CC[C@@]1(C(=O)N2CCOCC2)N=C(c2ccc(OCCCO)cc2)O[C@@H]1c1ccccc1N=[N+]=[N-]	0.639 (inactive)

Reported z-score, molecule "COCCOC(=O)N1C(=O)[C@@]2(c3cc(C#CCCO)ccc31)[C@H](C(=O)NC[C@H](O)c1ccccc1)[C@H]1C(=O)O[C@H](c3ccccc3)[C@H](c3ccccc3)N1[C@@H]2c1ccc(O)cc1" : ____
0.856 (inactive)

Reported z-score, molecule "O=C(O)[C@H]1C[C@H]2C(=O)NCC(=O)N2[C@H]1c1ccc(O)cc1" : ____
1.68 (inactive)

Reported z-score, molecule "COCCOC(=O)N1C(=O)[C@@]2(c3cc(C#CCCO)ccc31)[C@H](c1ccc(O)cc1)N1[C@H](c3ccccc3)[C@H](c3ccccc3)OC(=O)[C@H]1[C@@H]2C(N)=O" : ____
-0.834 (inactive)

Reported z-score, molecule "O=C(CS)NCCCCCCNC(=O)[C@@H]1C[C@@H]2C(=O)N3CCC[C@H]3C(=O)N2[C@@H]1c1ccc(O)cc1" : ____
0.0508 (inactive)

Reported z-score, molecule "O=c1cccc(CCc2ccccc2)o1" : ____
-0.97 (inactive)

Reported z-score, molecule CN1C(=O)C2C=CC(C(O)c3ccccn3)N(Nc3ccccc3)C2C1=O (stereo unspecified) : ____
-0.324 (inactive)

Reported z-score, molecule CCOc1cc(C(O)C2C=CC3C(=O)N(c4ccccc4)C(=O)C3N2Nc2ccc([N+](=O)[O-])cc2)ccc1O (stereo unspecified) : ____
-0.961 (inactive)

---

# composite z-score per record follows
Test system: Plasmodium falciparum Sir2 (PF13_0152, Sir2A)
EXPERIMENT_NOTES: pfSir2 binders on small-molecule microarrays, primary screen, biochemical, small-molecule microarray, 635 nm fluorescence (AID 1098);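 also: score merges spot fluorescence intensity with its signal-to-noise ratio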
RUN_CONDITIONS: small-molecule microarray binding, fluorescence 635 nm; higher = more signal
No unit in the answer, only the number.

Solved cases below.
COMPOUND	composite z-score
C=CCC(OC(C)=O)[C@@H]1[C@@H](N(Cc2ccc(-c3cccc(C(F)(F)F)c3)o2)C(=O)c2ccc(C)cc2)c2cc(OCCCO)ccc2N1C(=O)c1ccc(-c2ccccc2)cc1 (some centres not stated)	0.44
O=C1C2C=CC(C(O)c3ccc(F)cc3)N(Nc3ccccc3)C2C(=O)N1c1ccccc1 (configuration not stated)	1.44
COc1ccc([Si](C)(C)[C@@H]2[C@@H](CCn3cc([C@H](O)c4ccccc4)nn3)O[C@]3(C(=O)N(Cc4cccc(N5CCOC5=O)c4)c4ccccc43)[C@H]2C)cc1	-1.35

# input for lookup
Reported composite z-score, compound "C=C(COC)/C(=C/C[C@H](OC(=O)c1ccncc1)c1cccc(OCCO)c1)c1cc(C(=O)OC)ccc1OC" : ____
0.901

---

Tested on: Sonic hedgehog protein (Shh)
EXPERIMENT_NOTES: small-molecule binders of Shh protein, primary screen, biochemical, small-molecule microarray, 635/667 nm fluorescence (AID 1151);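 also: Shh protein binding to compounds spotted on small-molecule microarray slides; score combines spot fluorescence intensity with signal-to-noise across triplicate slides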
RUN_CONDITIONS: small-molecule microarray binding, 635 nm fluorescence; higher = more signal
READOUT_KIND: composite z-score
No unit in the answer, only the number.

Solved cases below.
COMPOUND	READOUT_KIND	OBSERVED_VALUE
O=C1N(CCS(=O)(=O)c2ccccc2)Cc2ccccc2[C@H]2OC(c3ccc(OCCCO)cc3)=N[C@@]12CCS(=O)(=O)c1ccccc1	composite z-score	0.806
CC(C)N1C(=O)C[C@@](C(=O)NCc2ccccc2)(c2ccc([N+](=O)[O-])cc2)[C@H]1c1ccc(CO)cc1	composite z-score	0.235

Checklist item: composite z-score tested on Sonic hedgehog protein (Shh), entry Cc1ccccc1C(O)C1C=CC2C(=O)N(C)C(=O)C2N1Nc1ccccc1 (centres undefined) , value?
-0.0269

Checklist item: composite z-score tested on Sonic hedgehog protein (Shh), entry "COc1ccc(C#Cc2ccc3c(c2)[C@]2(C(=O)N3)[C@H](C(=O)NC[C@H](O)c3ccccc3)[C@H]3C(=O)O[C@H](c4ccccc4)[C@H](c4ccccc4)N3[C@@H]2c2ccc(OCCO)cc2)cc1" , value?
1.96

Checklist item: composite z-score tested on Sonic hedgehog protein (Shh), entry CC(c1ccccc1)C(O)C1C=CC2C(=O)NC(=O)C2N1Nc1ccccn1 (centres undefined) , value?
0.341

Checklist item: composite z-score tested on Sonic hedgehog protein (Shh), entry "CN(C)C(=O)[C@]1(CCC(=O)OC(C)(C)C)N=C(c2ccc(OCCCO)cc2)O[C@@H]1c1ccccc1N=[N+]=[N-]" , value?
-0.149

Checklist item: composite z-score tested on Sonic hedgehog protein (Shh), entry O=C1C2C=CC(C(O)c3cccs3)N(Nc3ccccc3F)C2C(=O)N1c1ccccc1 (centres undefined) , value?
-0.573

Checklist item: composite z-score tested on Sonic hedgehog protein (Shh), entry "CCOC(=O)[C@H]1C/C=C/C[C@H](C(=O)OCC)C(=O)O[C@H]2[C@@H](OC)O[C@H](CO)[C@@H](OC(=O)Nc3ccc4c(c3)OCO4)[C@@H]2OC1=O" , value?
0.903

Checklist item: composite z-score tested on Sonic hedgehog protein (Shh), entry "C=CCNC(=O)[C@@H]1[C@H]2C(=O)O[C@H](c3ccccc3)[C@H](c3ccccc3)N2[C@H](c2ccc(OCCO)cc2)[C@@]12C(=O)Nc1ccccc12" , value?
1.61

Checklist item: composite z-score tested on Sonic hedgehog protein (Shh), entry "C=CC[C@@H](OC(=O)Nc1ccc(OC)cc1)c1ccc(O)c2ccccc12" , value?
2.03

Checklist item: composite z-score tested on Sonic hedgehog protein (Shh), entry "COc1ccc(CCNC(=O)[C@@]2(c3ccc([N+](=O)[O-])cc3)CC(=O)N(CC34CC5CC(CC(C5)C3)C4)[C@@H]2c2ccc(CO)cc2)cc1" , value?
0.948

Checklist item: composite z-score tested on Sonic hedgehog protein (Shh), entry "COCCOC(=O)N1C(=O)[C@@]2(c3cc(C#CC4=CCCCC4)ccc31)[C@H](C(=O)NC[C@H](O)c1ccccc1)[C@H]1C(=O)O[C@H](c3ccccc3)[C@H](c3ccccc3)N1[C@@H]2c1ccc(O)cc1" , value?
1.34

Checklist item: composite z-score tested on Sonic hedgehog protein (Shh), entry CCCCCN1CC=CC23O[C@@H]4C=CCOC(=O)[C@@H]4[C@H]2C(=O)N(CCCO)[C@@H]3C1=O (some centres undefined) , value?
1.25

Checklist item: composite z-score tested on Sonic hedgehog protein (Shh), entry "COC(=O)[C@@]1(Cc2ccccc2)[C@H]2c3cc(C(=O)N(C)C)n(Cc4cc(C)n(C)n4)c3C[C@H]2CN1C(=O)c1ccccc1" , value?
0.278
